endpoint_label: GI50 (µM)
A number alone suffices; assume µM.

Query Nc1nc(O)c2[nH]nnc2n1 on HCT-15; GI50 returned: 24

Simply: C[n+]1ccc(Nc2ccc(NC(=O)c3ccc(Nc4cc[n+](C)c5ccc([N+](=O)[O-])cc45)cc3[N+](=O)[O-])cc2)cc1 , HCT-15, GI50 = 44.8

So the reported GI50 for COc1cccc2c1C(=N)c1c(O)c3c(c(O)c1C2=O)C[C@@](O)(C(C)=O)C[C@@H]3OC1CC(N)C(O)C(C)O1 (some centres undefined) , on HCT-15, turned out to be 3.27

###

# System: UACC-62
# run_description: NCI tumour cell line growth inhibition, 48 h
Active and inactive are the calls of the source. Rule as the data show it: active = GI50 up to about 1.1 µM and inactive = higher.
endpoint_label: GI50

Field GI50 (entry CC1(C)O[C@H]2OC(CO)C(OS(C)(=O)=O)[C@H]2O1 (stereo partly drawn) ) reads > 100 µM (inactive)

// sample CCOP(=O)(OCC)/C(C#N)=C/c1c(C)[nH]c2ccccc12 , its GI50 was > 100 µM (inactive)

According to the records, this compound CC(C)(C)OC(=O)N1C(c2cccnc2)=CC[C@H]2C3CC=C(c4cccnc4)[C@@]3(C)CC[C@@H]21 (stereo partly drawn) displays GI50 of 2.61 µM (inactive)

Value of GI50 reported for the compound NC(=O)C(=CN1CC(=O)NC1=S)C(N)=O is > 100 µM (inactive)

Per the record, Oc1cc(CN2CCOCCOCCOCCOCC2)c(O)cc1CN1CCOCCOCCOCCOCC1 has GI50 of 29.2 µM (inactive)

Measured GI50, COc1ccc(CNc2nc3cc(C(F)(F)F)ccc3nc2C(=O)O)cc1OC : 20.5 µM (inactive)

Kindly note the recorded GI50 for C=C1CC2C[C@H](OS(=O)(=O)c3ccc(C)cc3)C(C1)N2C (stereo partly drawn) , which is > 100 µM (inactive)

Lookup result for CC(=O)c1ccc2c(c1)oc(=O)n2CCN(C)C ; measured GI50: > 100 µM (inactive)
